Test: Cytotoxicity against human MRC5 cells assessed as cell viability after 7 days by Alamar blue assay
Assay type: cell-based
// NB: equality with 60 µM counts as NO; only CC50 at 168 h strictly below is YES

Illustrative cases are given below, each with its answer.
1) CC1(OCC2CO2)c2ccccc2-c2c1c(C(F)(F)F)nc1ccc(Br)cc21 (configuration not stated)	YES
2) CC(c1cc(F)ccc1Oc1nc2ccc(-n3cc(-c4ccccc4)nn3)cc2cc1Cc1ccccc1)n1ccnc1 (configuration not stated)	NO
3) COc1nc2ccc(Br)cc2c2c1C(C)(OCC(O)CN1CCN(Cc3ccccc3)CC1)c1ccccc1-2 (mixture of isomers)	YES
4) COc1nc2ccc(Br)cc2cc1C(c1ccccc1)n1cnc([N+](=O)[O-])c1 (configuration not stated)	NO

Exercise: Please state whether CC50 at 168 h is below 60 µM for CSCCC(NC(=O)OC(C)(C)C)C(=O)O/N=C1\c2ccccc2-c2c1c(N1CCN(c3ccccn3)CC1)nc1ccc(Br)cc21 (configuration not stated)
Key: NO

Exercise: In the record for CC(NC(=O)OC(C)(C)C)C(=O)O/N=C1\c2ccccc2-c2c1c(N1CCN(c3ccccn3)CC1)nc1ccc(Br)cc21 (configuration not stated) , is CC50 at 168 h less than 60 µM?
Key: YES

Exercise: Item CC(O)c1cc(F)ccc1Oc1nc2ccc(NC(=O)Nc3cccc([N+](=O)[O-])c3)cc2cc1Cc1ccccc1 (configuration not stated) : CC50 at 168 h beneath 60 µM, strictly?
Key: YES
